Listed here: items and their measured NF-kB SEAP reporter activity.
system: RAW-Dual; assay: NF-kB SEAP reporter activity, fold change vs agonist alone; cytotoxicity flag (confluency mask): not cytotoxic; library stock concentration (final ~1000-fold dilution): 10 mM; higher = enhanced NF-kB activity; conditions: agonist: LPS (TLR4) 0.1 ug/mL
Whole data set: some 2,900 compounds, median “NF-kB SEAP reporter activity, fold change vs agonist alone” near 0.99, cut for the highest 2% near 2.6. The entries come from a sample that favours the highest values as a whole.

>  <compound>
CC1=CC2Cc3[nH]c(=O)ccc3C3(C1)NCCCC23 (stereo unspecified)

>  <NF-kB SEAP reporter activity>
1.12

$$$$
>  <compound>
Cc1sc2c(c1C)C(c1ccc(Cl)cc1)=NC(CC(=O)Nc1ccc(O)cc1)c1nnc(C)n1-2 (stereo unspecified)

>  <NF-kB SEAP reporter activity>
3.19

$$$$
>  <compound>
Cl[Te]1(Cl)(Cl)OCCO1.N

>  <NF-kB SEAP reporter activity>
1.39

$$$$
>  <compound>
CC[C@H]1CN2CC[C@]3(C(=O)Nc4ccccc43)[C@@H]2C[C@@H]1/C(=C\OC)C(=O)OC

>  <NF-kB SEAP reporter activity>
1.21

$$$$
>  <compound>
Cc1c(C(C)C2NCC(C)CC2O)ccc2c1CC1C2CC=C2CC(O)CCC21C (stereo unspecified)

>  <NF-kB SEAP reporter activity>
1.1

$$$$
>  <compound>
CCNC(=O)CC1N=C(c2ccc(Cl)cc2)c2cc(OC)ccc2-n2c(C)nnc21 (stereo unspecified)

>  <NF-kB SEAP reporter activity>
2.57

$$$$

---

tested on: RAW-Dual; assay: NF-kB SEAP reporter activity, fold change vs agonist alone; higher = enhanced NF-kB activity; settings: library stock concentration (final ~1000-fold dilution): 10 mM; cytotoxicity flag (confluency mask): cytotoxic (confluency <70% of control); agonist: MPLA (TLR4) […]
Over roughly 2,900 compounds, “NF-kB SEAP reporter activity, fold change vs agonist alone” has its median near 0.99; the highest 2% begin near 2.6. The list comes from a sample in which the highest values are over-represented; it also holds close analogues and randomly drawn compounds.
So basically: is NF-kB SEAP reporter activity under 2? Then condition met. Not under? Then condition not met.

>  <compound>
CN1Cc2c(ccc3c2OCO3)C2C(O)Cc3cc4c(cc3C21)OCO4 (stereo not given)

>  <discrete_label>
condition met

$$$$
>  <compound>
CC(C)(C)c1cc(C=C(C#N)C#N)cc(Br)c1O

>  <discrete_label>
condition not met

$$$$
>  <compound>
Nc1ncnc2c1ccn2C1OC(CO)C(O)C1O (stereo not given)

>  <discrete_label>
condition met

$$$$
>  <compound>
CC(C)(C)c1cc(C=C(C#N)C#N)cc(C(C)(C)C)c1O

>  <discrete_label>
condition not met

$$$$
>  <compound>
CN1C(=O)C23CC4(C56CC78SSC(CO)(C(=O)N7C5Nc5ccccc56)N(C)C8=O)c5ccccc5NC4N2C(=O)C1(CO)SS3 (stereo not given)

>  <discrete_label>
condition met

$$$$

---

system: RAW-Dual; assay: NF-kB SEAP reporter activity, fold change vs agonist alone; cytotoxicity flag (confluency mask): not cytotoxic; library stock concentration (final ~1000-fold dilution): 10 mM; higher = enhanced NF-kB activity; settings: agonist: LPS (TLR4) 0.1 ug/mL
The full ranking holds about 2,900 compounds; the median of “NF-kB SEAP reporter activity, fold change vs agonist alone” is about 0.99, and the highest 2% start at about 2.6. The sample holds the highest values, similar compounds and a random draw of the others, so the mix is not that of the screen.
reported_metric: NF-kB SEAP reporter activity

>  <compound>
COc1cc(C)[nH]c(=O)c1CNC(=O)c1c(C)n(C(C)C2CCN(CC(F)(F)F)CC2)c2ccccc12 (centres undefined)

>  <readout_value>
0.78

$$$$
>  <compound>
CCC1CN2CCC3(C(=O)Nc4ccccc43)C2CC1/C(=C\OC)C(=O)OC (centres undefined)

>  <readout_value>
1.1

$$$$
>  <compound>
CCCCCc1cc(O)cc(O)c1

>  <readout_value>
1.11

$$$$
>  <compound>
C=C(C)C1Cc2c(ccc3c2OC2COc4cc(OC)c(OC)cc4C2C3=O)O1 (centres undefined)

>  <readout_value>
3.13

$$$$
